The measured values listed here are drawn from PubChem BioAssay AID1648.

Listed below: Kd values for each entry.
# study target: Serine/threonine-protein kinase mTOR (Homo sapiens)
# protocol text: binders of mTOR FRB domain, biophysical, NMR (AID 1648)
# conditions used: NMR binding to FRB domain, chemical shift
Active and inactive are the calls of the source. No rule for the calls is given here.

O=C(/C=C/c1ccccc1)c1ccc(O)cc1 = > 4 mM (inactive)
Cc1ccc2nc(SCCC#N)nc(C)c2c1 = > 4 mM (inactive)
OCc1ccc(N2CCOCC2)cc1 = > 4 mM (inactive)
CCC(C)C(=O)O[C@@H]1C[C@@]2(C)[C@H](c3ccoc3)OC(=O)CC23OC2(C)OC34[C@H](OC(=O)C(C)C)[C@@]3(O)[C@@H](OC(=O)C5(C)OC5C)[C@@]5(C)C[C@]3(O)[C@@](C)([C@H]5CC(=O)OC)C14O2 (some centres undefined) = > 4 mM (inactive)
O=C(O)C(CO)c1ccccc1 (centres undefined) = > 4 mM (inactive)

Observed Kd on Serine/threonine-protein kinase mTOR (Homo sapiens), entry CC(=O)NC(O)C(=O)c1cccs1 (centres undefined) , equals > 4 mM (inactive)

Observed Kd on Serine/threonine-protein kinase mTOR (Homo sapiens), entry "O=C1CSC(=Nc2ccc(O)cc2)N1" , equals > 4 mM (inactive)

Observed Kd on Serine/threonine-protein kinase mTOR (Homo sapiens), entry "COC(=O)c1cn(C(=O)OC)c2ccccc12" , equals > 4 mM (inactive)

====

Listed below: Kd values for each entry.
# study target: Serine/threonine-protein kinase mTOR (Homo sapiens)
# protocol text: binders of mTOR FRB domain, biophysical, NMR (AID 1648)
# conditions used: NMR binding to FRB domain, chemical shift
Active and inactive are the calls of the source. How the calls were made is not given here.

Cc1nc(-c2cccc(C(=O)O)c2)cs1 = > 4 mM (inactive)
CC(=O)NC1=NN(c2ccccc2)C(=O)C1 = > 4 mM (inactive)
CCn1nccc1C(=O)Nc1ccc(Cl)cc1Cl = > 4 mM (inactive)
Cn1c(C(=O)O)ccc1S(N)(=O)=O = > 4 mM (inactive)
CC(CO)NC(=O)C1C=C2c3cccc4[nH]cc(c34)C[C@H]2N(C)C1 (stereo partly specified) = > 4 mM (inactive)

Kindly note the recorded Kd for "Nc1nnc(SCc2ccc3c(c2)OCO3)s1" , which is > 4 mM (inactive)

====

Listed below: Kd values for each entry.
# study target: Serine/threonine-protein kinase mTOR (Homo sapiens) (UniProt P42345)
# Sequence (P42345 2015-2114): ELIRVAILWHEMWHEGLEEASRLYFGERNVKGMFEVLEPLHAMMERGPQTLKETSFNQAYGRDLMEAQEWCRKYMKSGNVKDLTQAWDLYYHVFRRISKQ
# protocol text: binders of mTOR FRB domain, biophysical, NMR (AID 1648)
# conditions used: NMR binding to FRB domain, chemical shift
The source made the active and inactive calls. How the calls were made is not given here.

Worked set:
Cc1ccc(C)c(S(=O)(=O)NCc2cccnc2)c1 = > 4 mM (inactive)
Nc1ncnc(Cl)c1[N+](=O)[O-] = > 4 mM (inactive)
NCc1ccc(-c2cccs2)s1 = > 4 mM (inactive)
Cc1cccnc1NC1=NCC(C)S1 (stereo not drawn) = > 4 mM (inactive)
O=c1c[n+]([O-])c2ccccc2n1OCc1ccccn1 = > 4 mM (inactive)

Kindly note the recorded Kd for "Cn1c(=O)n(CC(=O)Nc2cccnc2)c2ccccc21" , which is > 4 mM (inactive)

Kindly note the recorded Kd for CC[C@H]1CN2CCc3cc(OC)c(OC)cc3C2C[C@@H]1CC1NCCc2cc(OC)c(OC)cc21 (stereo partly drawn) , which is > 4 mM (inactive)

Kindly note the recorded Kd for "Cc1onc(-c2c(Cl)cccc2Cl)c1C(N)=O" , which is > 4 mM (inactive)

Kindly note the recorded Kd for "CNC(=O)C(=O)Nc1ccc(C)c(C)c1" , which is > 4 mM (inactive)
